target-under-test: HIV-1 RT K103N/V108I (Human immunodeficiency virus type 1 group M subtype B, UniProt P03366, K702N/V707I)
Construct: an HIV RT clone pKRT2 containing only the RT p66 gene regulated by the lac operon/trc promoter; made in house; host or cells: E. coli JM109, vector pKK233-2
test-protocol: Reverse transcriptase (RT) assay, K103N/V108I mutant
Assay type: biochemical
measurement-kind: log10 IC50 (log10 of the value in nM)
# values: log10(IC50), units nM

Please review the entries below; each comes with its answer.
> print(dat)
                    structure.smiles.string  measurement.kind  recorded.number
1  CCN1c2ncc(CCOc3cc[n+]([O-])c4ccccc34)cc2C(=O)Nc2c(C)cc(Cl)nc21        log10 IC50             1.77
2  CN1C(=O)c2cc(CCOc3cc[n+]([O-])c4ccccc34)cnc2N(C2CC2)c2nc(Cl)ccc21        log10 IC50             2.41
3  CCN1c2ncc(CCOc3ccnc4ccccc34)cc2C(=O)Nc2c(C)cc(Cl)nc21        log10 IC50             1.46
4  CCN1c2ncc(CCOc3ccnc4ccccc34)cc2C(=O)N(C)c2ccc(Cl)nc21        log10 IC50             1.49
5  CCN1c2ncc(CCOc3cc[n+]([O-])c4ccccc34)cc2C(=O)N(C)c2ccc(F)nc21        log10 IC50             1.74

Take each entry in turn and give its log10 IC50.
1. CCN1c2ncc(CCOc3cc[n+]([O-])c4ccccc34)cc2C(=O)N(C)c2ccc(C)nc21
2. Cc1cc(F)nc2c1NC(=O)c1cc(CCOc3ccnc4ccccc34)cnc1N2C1CC1
3. CCN1c2ncc(CCOc3cc[n+]([O-])c4ccccc34)cc2C(=O)N(C)c2ccc(Cl)nc21
4. CCN1c2ncc(CCOc3ccnc4ccccc34)cc2C(=O)Nc2c(C)ccnc21

[reply]
1.54
1.58
1.92
1.80

Provide log10 IC50 values for the following items, in order.
1. CCN1c2ncc(CCOc3cc[n+]([O-])c4ccccc34)cc2C(=O)Nc2c(C)cc(F)nc21
2. CCN1C(=O)c2cc(CCOc3ccnc4ccccc34)cnc2N(CC)c2ncccc21
3. Cc1ccnc2c1NC(=O)c1cc(CCOc3cc[n+]([O-])c4ccccc34)cnc1N2C1CC1
4. CCN1c2ncc(CCOc3cc[n+]([O-])c4ccccc34)cc2C(=O)N(C)c2cccnc21
5. CCN1c2ncc(CCOc3ccnc4ccccc34)cc2C(=O)Nc2c(C)cc(F)nc21
6. CCN1c2ncc(CCOc3cccc4c3ccc[n+]4[O-])cc2C(=O)N(C)c2ccc(F)nc21
7. CCN1c2ncc(CCOc3cc[n+]([O-])c4ccccc34)cc2C(=O)Nc2c(C)ccnc21

[reply]
1. 1.76
2. 2.65
3. 2.33
4. 2.08
5. 1.65
6. 1.98
7. 1.88

###

Test system: HIV coding for mutant reverse transcriptase Y181C
test-protocol: ELISA (p24) assay of HIV replication in C8166 cell culture, Y181C virus
Assay type: cell-based, HIV-1
condition-label: Human immunodeficiency virus 1, C8166, 72 h, read-out: EC50 Y181C
measurement-kind: EC50

> print(dat)
                    structure.smiles.string  measurement.kind  result
1  CCN1c2ncc(CCOc3cc[n+]([O-])c4ccccc34)cc2C(=O)Nc2c(C)ccnc21              EC50  2.7 nM
2  CCN1c2ncc(CCOc3cc[n+]([O-])c4ccccc34)cc2C(=O)N(C)c2ccc(F)nc21              EC50  4.1 nM
3  CCN1c2ncc(CCOc3cc[n+]([O-])c4ccccc34)cc2C(=O)N(C)c2ccc(Cl)nc21              EC50  2.8 nM
4  CCN1c2ncc(CCOc3cc[n+]([O-])c4ccccc34)cc2C(=O)N(C)c2cccnc21              EC50  4.8 nM

// next item, EC50 requested
Recorded result, CCN1c2ncc(CCOc3cc[n+]([O-])c4ccccc34)cc2C(=O)N(C)c2ccc(C)nc21 , EC50: 2.6 nM

###

Kindly state pIC50 for each of the entries shown.
target-under-test: HIV-1 RT Y188L (Human immunodeficiency virus type 1 group M subtype B, UniProt P03366, Y787L)
Construct: an HIV RT clone pKRT2 containing only the RT p66 gene regulated by the lac operon/trc promoter
test-protocol: Reverse transcriptase (RT) assay, Y188L mutant
Give bare numbers, as −log10 of the molar value.

Quick one: give me pIC50 for each item below, same order please.
1. CCN1c2ncc(CCOc3ccnc4ccccc34)cc2C(=O)N(C)c2ccc(F)nc21 [compound 4]
2. CCN1c2ncc(CCOc3cc[n+]([O-])c4ccccc34)cc2C(=O)N(C)c2ccc(F)nc21 [compound 11]

[reply]
1: 6.28; 2: 6.18

// each molecule listed below needs its pIC50
1. CCN1c2ncc(CCOc3cc[n+]([O-])c4ccccc34)cc2C(=O)N(C)c2cccnc21 [compound 21]
2. Cc1ccnc2c1NC(=O)c1cc(CCOc3ccnc4ccccc34)cnc1N2C1CC1 [compound 3]

[reply]
[5.87, 5.49]

###

target-under-test: HIV-1 RT Y188L (Human immunodeficiency virus type 1 group M subtype B, UniProt P03366, Y787L)
Construct: an HIV RT clone pKRT2 containing only the RT p66 gene regulated by the lac operon/trc promoter
test-protocol: Reverse transcriptase (RT) assay, Y188L mutant
Rule: IC50 below 1000 nM gives 1.0, anything at or above gives 0.0.

> print(dat)
                    structure.smiles.string  class.name
1  CCN1C(=O)c2cc(CCOc3ccnc4ccccc34)cnc2N(CC)c2ncccc21         0.0
2  CCN1c2ncc(CCOc3cccc4c3ccc[n+]4[O-])cc2C(=O)N(C)c2ccc(F)nc21         0.0
3  CN1C(=O)c2cc(CCOc3cc[n+]([O-])c4ccccc34)cnc2N(C2CC2)c2nc(Cl)ccc21         0.0

[ask] Is it true that IC50 reported for CCN1c2ncc(CCOc3ccnc4ccccc34)cc2C(=O)N(C)c2cccnc21 is less than 1000 nM?
[reply] 1.0

[ask] IC50 strictly < 1000 nM for this compound? CCN1c2ncc(CCOc3cccc4ncccc34)cc2C(=O)Nc2c(C)cc(Cl)nc21
[reply] 0.0

###

target-under-test: HIV-1 RT P23L (Human immunodeficiency virus type 1 group M subtype B, UniProt P03366, P835L)
Construct: an HIV RT clone pKRT2 containing only the RT p66 gene regulated by the lac operon/trc promoter
test-protocol: Reverse transcriptase (RT) assay, P23L mutant
Exercise: for every item that follows, state its recorded IC50.
Answers are plain numbers, in µM.

// known answers, use as guide
> print(dat)
                    structure.smiles.string  recorded.number
1  CCN1c2ncc(CCOc3cc[n+]([O-])c4ccccc34)cc2C(=O)N(C)c2ccc(Cl)nc21             0.06
2  CCN1c2ncc(CCOc3cc[n+]([O-])c4ccccc34)cc2C(=O)N(C)c2ccc(F)nc21            0.056
3  CCN1c2ncc(CCOc3ccnc4ccccc34)cc2C(=O)N(C)c2ccc(Cl)nc21           0.0505

# context switch: different molecule, same IC50
Entry CCN1c2ncc(CCOc3cc[n+]([O-])c4ccccc34)cc2C(=O)N(C)c2cccnc21 — recorded IC50 = 0.129

###

pIC50 values recorded for HIV-1 RT wild-type (WT) (Human immunodeficiency virus type 1 group M subtype B)
One number for each entry, as −log10 of the molar value.

Please review the entries below; each comes with its answer.
> print(dat)
                    structure.smiles.string  recorded.number
1  CCN1c2ncc(CCOc3cc[n+]([O-])c4ccccc34)cc2C(=O)N(C)c2ccc(F)nc21             8.02
2  CN1C(=O)c2cc(CCOc3ccnc4ccccc34)cnc2N(C2CC2)c2nc(Cl)ccc21             7.60
3  CCN1c2ncc(CCOc3ccnc4ccccc34)cc2C(=O)N(C)c2cccnc21             8.25
4  CCN1c2ncc(CCOc3cc[n+]([O-])c4ccccc34)cc2C(=O)Nc2c(C)ccnc21             7.92
5  CCN1c2ncc(CCOc3cccc4c3ccc[n+]4[O-])cc2C(=O)Nc2c(C)cc(F)nc21             8.21

Please look at the items below and tell me pIC50 for each one, in order.
1. CCN1c2ncc(CCOc3cc[n+]([O-])c4ccccc34)cc2C(=O)N(C)c2ccc(C)nc21
2. Cc1ccnc2c1NC(=O)c1cc(CCOc3ccnc4ccccc34)cnc1N2C1CC1
3. CN1C(=O)c2cc(CCOc3cc[n+]([O-])c4ccccc34)cnc2N(C2CC2)c2nc(Cl)ccc21
4. CCN1c2ncc(CCOc3cc[n+]([O-])c4ccccc34)cc2C(=O)Nc2c(C)cc(F)nc21
5. CCN1c2ncc(CCOc3ccnc4ccccc34)cc2C(=O)N(C)c2ccc(F)nc21
6. CCN1c2ncc(CCOc3ccnc4ccccc34)cc2C(=O)Nc2c(C)ccnc21
7. CCN1c2ncc(CCOc3ccnc4ccccc34)cc2C(=O)N(C)c2ccc(Cl)nc21
8. CCN1C(=O)c2cc(CCOc3cc[n+]([O-])c4ccccc34)cnc2N(CC)c2ncccc21

[reply]
[7.72, 7.78, 7.39, 7.85, 7.96, 8.00, 8.26, 7.42]

Your task in this section: give pIC50 for each listed record.
1. CCN1c2ncc(CCOc3cc[n+]([O-])c4ccccc34)cc2C(=O)N(C)c2ccc(Cl)nc21
2. Cc1cc(F)nc2c1NC(=O)c1cc(CCOc3ccnc4ccccc34)cnc1N2C1CC1
3. CCN1c2ncc(CCOc3ccnc4ccccc34)cc2C(=O)Nc2c(C)cc(F)nc21

[reply]
7.85
7.72
8.01
